tested on: LXFL 529 NSCLC; test: NCI tumour cell line growth inhibition, 48 h
reported.endpoint: TGI

Task item: Write down the reported TGI (system: LXFL 529 NSCLC) of COc1ccc(NC(=O)CC(=O)n2nc(C)c(N=Nc3ccccc3C(=O)O)c2C)cc1
Reply: > 100 µM

Task item: Find the measured TGI of C/C(N=NS(=O)(=O)c1ccc([N+](=O)[O-])cc1)=C1\C=CC=CN1O with LXFL 529 NSCLC as test system.
Reply: > 100 µM

Task item: Report value: TGI, system: LXFL 529 NSCLC, compound: O=c1cccc(-c2cccc(=O)[nH]2)[nH]1
Reply: > 100 µM

---

For each of the molecules below, state its TGI.
tested on: HT29 colon; assay: NCI tumour cell line growth inhibition, 48 h

Task item: Jot down TGI (HT29 colon) of CC(=O)OC1[C@H](OC(C)=O)C2=C(C)[C@@H](OC(C)=O)C[C@@]2(C(C)(C)O)[C@@H](OC(C)=O)[C@H]2[C@@]1(C)[C@@H](OC(C)=O)CC(OC(C)=O)[C@]21CO1 (stereo partly drawn) .
Reply: > 100 µM

Task item: Given COC1(CC[C@@H](C)COC2OC(CO)C(O)C(O)C2O)O[C@H]2C[C@H]3[C@@H]4CC=C5C[C@@H](OC6OC(CO)C(O)C(OC7OC(CO)C(O)C(O)C7O)C6OC6OC(C)C(O)C(O)C6O)CC[C@]5(C)[C@H]4CC[C@]3(C)[C@H]2[C@@H]1C (stereo partly drawn) , report its TGI on HT29 colon.
Reply: > 23.1 µM

Task item: Give reported TGI for Cc1ccc(C2NC(=O)c3ccccc3N2)c(C)c1 (stereo not drawn) (HT29 colon)
Reply: 34.9 µM

Task item: Please report TGI with HT29 colon for item CN(CCNC(=O)c1c[nH]c2c1Cc1ccccc1-2)CCNC(=O)c1c[nH]c2c1Cc1ccccc1-2 .
Reply: > 100 µM

Task item: Give TGI for this entry on HT29 colon: COCCOCCOCCOc1cccc2c1C(=O)c1cccc(OCCOCCOCCOC)c1C2=O
Reply: > 100 µM

Task item: Print HT29 colon TGI for Cc1cc(Cl)ccc1C(=O)c1ccc2ccccc2c1C(=O)O .
Reply: > 100 µM

Task item: With HT29 colon as the test system, provide measured TGI for this molecule: Cc1ccc(S(=O)(=O)N/N=C/C(C)C)cc1
Reply: > 100 µM

Task item: Answer briefly: TGI recorded on HT29 colon for CNc1ncnc2c1nc(NC1CCCC1)n2C1OC(CO)C(O)C1O (stereo not drawn)
Reply: > 100 µM

---

test system: HOP-62 NSCLC; assay: NCI tumour cell line growth inhibition, 48 h
Give TGI for every item shown.

Task item: Supply reported TGI belonging to this compound: Nc1nc(N)c2nc3c(nc2n1)CCCCCCCCCC3
Reply: > 100 µM

Task item: Return reported TGI. Input compound: CC1(C)COC2=C(C1)C(=O)c1ccccc1C2=O
Reply: 3.45 µM

Task item: Report TGI, nothing else, for this compound: C=C(C(=C)P(=S)(C(C)C)C(C)C)P(=S)(C(C)C)C(C)C
Reply: > 100 µM

Task item: Find the measured TGI of OC1(c2ccc(Cl)cc2)c2ccccc2-c2nc3ccccc3n21 (stereo not drawn) and report it.
Reply: > 100 µM

Task item: Could you please provide reported TGI for C#CC(O)/C=C/CCCCCCC#CC/C=C\CC#CCCCCCCCCC(O)C#C (stereo not drawn) ? Thanks!
Reply: 12 µM

Task item: Provide measured TGI value, entry: CSc1nc(N)c2c(-c3ccccc3)c3c(nc2n1)CCCC3
Reply: > 100 µM

Task item: Using the record for CC12CCC(CC1)C(C)(C)O2 , state its measured TGI.
Reply: 52.2 µM

Task item: Find the measured TGI of Cc1c2c(c(C)c3c1[nH]c1ccccc13)CN(C)CC2 and report it.
Reply: > 100 µM

Task item: Give TGI for the following compound: OC1COC2CC(Nc3ccccn3)OC12 (stereo not drawn)
Reply: > 100 µM

Task item: Tell us which TGI value is on record for COCCOCCOCc1n(Cc2ccc3ccccc3n2)c2ccccc2[n+]1Cc1ccc2ccccc2n1
Reply: 14.3 µM

Task item: Please give measured TGI of the following entry: O=C(O)c1nc2ccc(C(F)(F)F)cc2nc1Nc1ccc(F)cc1
Reply: 34.7 µM

Task item: Fill in TGI for record O=C1CSC(c2cccc(Cl)c2)N1c1ccc(-c2ccc(-n3c(-c4ccccc4)nc4ccccc4c3=O)cc2)cc1 (stereo not drawn)
Reply: > 100 µM

Task item: Quote TGI reported for Cn1cc(S(=O)(=O)NC(=O)Nc2ccc(Cl)cc2)c(=O)c2ccc(F)cc21 please.
Reply: > 100 µM

---

I'd appreciate it if you could supply log10 TGI values for the items below.
system: NCI-H226 lung; experiment: NCI tumour cell line growth inhibition, 48 h
Hi team, quick reminder: these entries are log10 of TGI (µM).

Task item: Provide measured log10 TGI on NCI-H226 lung for O=[N+]([O-])c1cc([N+](=O)[O-])c(Cl)cc1Cl please.
Reply: 0.76

Task item: Enter log10 TGI (test system NCI-H226 lung) for CC1(C)Cc2c(Br)c(Br)c(Br)c(OCC(O)CN3CCN(c4ccccn4)CC3)c2O1 (configuration not stated)
Reply: 1.58

Task item: Send back NCI-H226 lung log10 TGI of COC(=O)C1OC(O[C@H]2CC[C@]3(C)[C@H]4CC=C5[C@@H]6CC(C)(C)CC[C@]6(C(=O)OC6OCC(O)C(O)C6OC6OC(C)C(OC7OCC(O)C(O)C7O)C(OC7OCC(O)(CO)C7O)C6O)[C@H](O)C[C@@]5(C)[C@]4(C)CC[C@H]3C2(C)C)C(O)C(O)C1O (some centres not stated) only.
Reply: 1.19

Task item: # return log10 TGI of C[C@@H]1CC(=O)C[C@@H]2CC[C@H]3[C@@H]4CC[C@H](OC(=O)c5cccc6cc7ccccc7nc56)[C@H]4CC[C@@H]3[C@H]21 (system: NCI-H226 lung)
Reply: 1.80

Task item: Supply log10 TGI measured with NCI-H226 lung for COC(=O)C(C(=O)OC)C(Br)C(Br)C(Br)c1ccccc1 (configuration not stated) .
Reply: 1.47

Task item: Look up NCI-H226 lung data: log10 TGI of Cc1ccc(-n2nnnc2-c2cnc(N3CCOCC3)nc2-c2cccc(C(F)(F)F)c2)cc1 , then report it.
Reply: 1.03

---

test system: CAKI-1 renal; assay: NCI tumour cell line growth inhibition, 48 h
reported.endpoint: GI50

Task item: Item COc1ccc(-c2c3c(nc4n[nH]c(-c5ccc(Cl)cc5)c24)-c2ccccc2C(=O)C3=O)cc1 : provide GI50
Reply: 1620 nM

Task item: Give GI50 for CCCCNc1ccc(Nc2ccccc2)cc1
Reply: 18600 nM

Task item: Give GI50 for the following compound: O=C1N(Cc2ccccc2Cl)c2ccccc2C12NN=C(c1cccc(Cl)c1)S2 (configuration not stated)
Reply: 1690 nM

Task item: Read off the recorded GI50 for CCCCCCNCc1cc(C(C)(C)C)cc(CNCCCCCC)c1O
Reply: 1690 nM

Task item: For the compound COC(=O)[C@H](Cc1cn(C)cn1)NC(=O)[C@H](C)NC(=O)Nc1cc(C(F)(F)F)cc(C(F)(F)F)c1 , give its reported GI50.
Reply: > 10000 nM

Task item: Identify measured GI50 associated with Cc1nc2cc(Nc3nc(Nc4ccc(F)cc4)nc(N4CCOCC4)n3)ccc2n1Cc1ccccc1
Reply: 3890 nM

Task item: Give reported GI50 value for COc1cc(Cl)cc(-c2nn(-c3cccc(NC(=O)Nc4ccc(Cl)c(Cl)c4)c3)cc2-c2ccncc2)c1
Reply: 2380 nM

---

tested on: UACC-62 melanoma; assay: NCI tumour cell line growth inhibition, 48 h
reported.endpoint: TGI (µM)
// return numeric value only (unit: µM, not printed)

Task item: Give recorded TGI. C/C(=N\NC(=S)N1CCCCCC1)c1cccc2cccnc12
Reply: 6.53

Task item: # return recorded TGI for input Cl.Fc1c[c-]c(-c2ccccn2)c(F)c1.[Pt].c1ccc([PH+](C[PH+](c2ccccc2)c2ccccc2)c2ccccc2)cc1
Reply: 0.511

Task item: Give the reported TGI for this molecule. Cc1cccc(CC(Cc2ccc(C)cc2C(=O)O)C(=O)O)c1 (centres undefined)
Reply: 96.5

---

system: SF-295 CNS; test: NCI tumour cell line growth inhibition, 48 h
reported.endpoint: TGI

Task item: Supply reported TGI belonging to this compound: COc1cc(OC)c2c(c1)OC(c1cccnc1)C(c1ccccc1)C2=O (stereo not given)
Reply: > 100 µM

Task item: Provide one value: measured TGI of COCCOCCOCCOc1cccc2c1C(=O)c1cccc(OCCOCCOCCOC)c1C2=O
Reply: > 100 µM

Task item: Recall and state the measured TGI for COc1ccc(NCC(=O)Nn2c(-c3ccccc3)nc3ccccc3c2=O)cc1 .
Reply: > 100 µM

Task item: Assign TGI to the following record: Cn1cc(C2=C(Nc3ccccc3)C(=O)NC2=O)c2ccccc21
Reply: > 25 µM

Task item: Quick one: give measured TGI for C=C(C(=C)P(=S)(C(C)C)C(C)C)P(=S)(C(C)C)C(C)C
Reply: > 100 µM
